# credit: ChEMBL document CHEMBL5291721

Recorded below: AC50, system Neuronal acetylcholine receptor subunit alpha-4 (Homo sapiens, UniProt P43681). Also: assay procedure not described here.

{"compound": "C#CCN[C@@H]1CCc2ccccc21", "AC50": "> 30 µM"}
{"compound": "CN1C(=O)CC(c2ccccc2)C1=O (stereo not drawn) [PHENSUXIMIDE]", "AC50": "> 10 µM"}
{"compound": "CNC(=O)c1cc(Oc2ccc(NC(=O)Nc3ccc(Cl)c(C(F)(F)F)c3)cc2)ccn1", "AC50": "> 30 µM"}
{"compound": "O=C(O)c1cc(-c2ccc(F)cc2F)ccc1O", "AC50": "> 10 µM"}
{"compound": "CCN1CCC[C@H]1CNC(=O)c1cc(S(N)(=O)=O)ccc1OC [LEVOSULPIRIDE]", "AC50": "> 10 µM"}
{"compound": "COC(=O)C1=C(C)NC(C)=C(C(=O)OC)C1c1ccccc1[N+](=O)[O-]", "AC50": "> 10 µM"}
{"compound": "C[C@H]1C[C@@H]2[C@H]([C@@H](O)C[C@@]3(C)[C@H]2CC[C@]3(O)C(=O)CO)[C@@]2(C)C=CC(=O)C=C12", "AC50": "> 10 µM"}
{"compound": "CN1C(=O)CC(=O)N(c2ccccc2)c2cc(Cl)ccc21", "AC50": "> 10 µM"}

---

assaySystem: Beta-1 adrenergic receptor (Homo sapiens); also: assay procedure not described here
Sequence (P08588 whole entry): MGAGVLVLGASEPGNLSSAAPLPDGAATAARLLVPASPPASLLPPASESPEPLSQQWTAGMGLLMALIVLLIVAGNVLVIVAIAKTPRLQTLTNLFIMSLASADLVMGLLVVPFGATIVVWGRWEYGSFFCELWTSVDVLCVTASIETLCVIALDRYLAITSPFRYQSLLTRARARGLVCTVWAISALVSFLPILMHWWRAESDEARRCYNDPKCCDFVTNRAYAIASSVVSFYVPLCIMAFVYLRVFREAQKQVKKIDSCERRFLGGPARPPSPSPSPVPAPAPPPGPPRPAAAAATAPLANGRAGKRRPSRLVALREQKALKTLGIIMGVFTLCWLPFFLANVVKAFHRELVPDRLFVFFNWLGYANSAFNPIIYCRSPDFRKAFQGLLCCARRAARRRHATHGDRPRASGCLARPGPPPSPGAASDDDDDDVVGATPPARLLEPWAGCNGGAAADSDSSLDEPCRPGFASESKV
Type: functional
Reported values of AC50 for individual entries

{"compound": "O=P(O)(O)C(O)(Cc1cccnc1)P(=O)(O)O [RISEDRONIC ACID]", "AC50": "> 30 µM"}
{"compound": "CN1C(=O)COc2c(C(=O)NC3CN4CCC3CC4)cc(Cl)cc21 (stereo not given) [AZASETRON]", "AC50": "> 30 µM"}
{"compound": "CCCCC(C)(O)C/C=C/[C@H]1[C@H](O)CC(=O)[C@@H]1CCCCCCC(=O)OC (stereo not given in full) [MISOPROSTOL]", "AC50": "> 30 µM"}
{"compound": "O=C(CCCCC(=O)Nc1c(I)cc(I)c(C(=O)O)c1I)Nc1c(I)cc(I)c(C(=O)O)c1I [IODIPAMIDE]", "AC50": "> 10 µM"}
{"compound": "CCN(CC)CCOC(=O)c1ccc(N)cc1 [PROCAINE]", "AC50": "> 10 µM"}
{"compound": "CCCC(CCC)C(=O)O[C@H]1C[C@H]2CC[C@@H](C1)[N+]2(C)C [ANISOTROPINE]", "AC50": "> 30 µM"}
{"compound": "Cc1ccc(C(=O)c2cc(O)c(O)c([N+](=O)[O-])c2)cc1 [TOLCAPONE]", "AC50": "> 10 µM"}
{"compound": "CCCCCN(C)CCC(O)(P(=O)(O)O)P(=O)(O)O [IBANDRONIC ACID]", "AC50": "> 30 µM"}
{"compound": "CCC(C(=O)O)c1ccc(CC(C)C)cc1 (stereo not given) [BUTIBUFEN]", "AC50": "> 30 µM"}
{"compound": "CCCCCOC(=O)Nc1nc(=O)n([C@@H]2O[C@H](C)[C@@H](O)[C@H]2O)cc1F [CAPECITABINE]", "AC50": "> 30 µM"}

---

Quick note: these are AC50 numbers for system: D(4) dopamine receptor (Homo sapiens, UniProt P21917); also: assay procedure not described here
Sequence (P21917 whole entry): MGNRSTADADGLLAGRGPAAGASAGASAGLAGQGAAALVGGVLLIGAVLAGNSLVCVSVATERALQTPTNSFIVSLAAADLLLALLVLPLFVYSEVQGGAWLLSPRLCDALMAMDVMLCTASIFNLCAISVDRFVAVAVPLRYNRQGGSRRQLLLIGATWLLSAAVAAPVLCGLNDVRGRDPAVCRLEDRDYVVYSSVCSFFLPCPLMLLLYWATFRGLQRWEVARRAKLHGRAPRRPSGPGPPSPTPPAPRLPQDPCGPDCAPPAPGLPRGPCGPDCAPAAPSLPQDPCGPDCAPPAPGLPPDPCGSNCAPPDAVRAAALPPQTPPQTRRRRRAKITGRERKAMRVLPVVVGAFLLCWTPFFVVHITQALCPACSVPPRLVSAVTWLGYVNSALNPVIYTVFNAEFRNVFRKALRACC

{"compound": "O=c1[nH]c2ccccc2n1C1CCN(CCCC(c2ccc(F)cc2)c2ccc(F)cc2)CC1 [PIMOZIDE]", "AC50": "0.0728 µM"}
{"compound": "O=P(O)(O)C(O)(Cc1cccnc1)P(=O)(O)O [RISEDRONIC ACID]", "AC50": "> 10 µM"}
{"compound": "NC(=O)C[S+]([O-])C(c1ccccc1)c1ccccc1 (stereo not drawn) [MODAFINIL]", "AC50": "> 10 µM"}
{"compound": "CN(CCOc1ccc(NS(C)(=O)=O)cc1)CCc1ccc(NS(C)(=O)=O)cc1 [DOFETILIDE]", "AC50": "> 10 µM"}
{"compound": "Oc1ncnc2[nH]ncc12 [ALLOPURINOL]", "AC50": "> 10 µM"}
{"compound": "CN1CCN(C(=O)OC2c3nccnc3C(=O)N2c2ccc(Cl)cn2)CC1 (stereo not drawn) [ZOPICLONE]", "AC50": "> 10 µM"}
{"compound": "CCc1ccc(CCOc2ccc(CC3SC(=O)NC3=O)cc2)nc1 (stereo not drawn) [PIOGLITAZONE]", "AC50": "> 10 µM"}
{"compound": "Nc1nc(N)c2nc(-c3ccccc3)c(N)nc2n1", "AC50": "> 10 µM"}
{"compound": "COc1cc(Nc2c(C#N)cnc3cc(OCCCN4CCN(C)CC4)c(OC)cc23)c(Cl)cc1Cl [BOSUTINIB]", "AC50": "> 10 µM"}
{"compound": "NS(=O)(=O)c1cc2c(cc1Cl)NCNS2(=O)=O [HYDROCHLOROTHIAZIDE]", "AC50": "> 10 µM"}
{"compound": "O=C(CCCCCCC(=O)Nc1ccccc1)NO [VORINOSTAT]", "AC50": "> 10 µM"}
{"compound": "COc1cc2c(cc1OC)C(=O)C(CC1CCN(Cc3ccccc3)CC1)C2 (stereo not drawn) [DONEPEZIL]", "AC50": "0.824 µM"}
{"compound": "CCN(CC)CCNC(=O)c1cc(Cl)c(N)cc1OC [METOCLOPRAMIDE]", "AC50": "1.16 µM"}
{"compound": "COC(=O)C1=C(C)NC(C)=C(C(=O)OC)C1c1ccccc1[N+](=O)[O-] [NIFEDIPINE]", "AC50": "> 10 µM"}
{"compound": "Cc1c(C(=O)Nc2ccc(N3C[C@@H](C)O[C@@H](C)C3)nc2)cccc1-c1ccc(OC(F)(F)F)cc1 [SONIDEGIB]", "AC50": "> 10 µM"}
{"compound": "NC(=O)c1cnccn1 [PYRAZINAMIDE]", "AC50": "> 10 µM"}
{"compound": "Cc1ccc(-c2nc3ccc(C)cn3c2CC(=O)N(C)C)cc1 [ZOLPIDEM]", "AC50": "> 10 µM"}
{"compound": "CCC[C@@H]1C[C@@H](C(=O)N[C@@H]([C@H]2O[C@H](SC)[C@H](O)[C@@H](O)[C@H]2O)[C@H](C)Cl)N(C)C1 [CLINDAMYCIN]", "AC50": "> 10 µM"}
